# Test system: IGROV-1
# Experiment notes: NCI tumour cell line growth inhibition, 48 h
Active and inactive are the calls of the source. Cut-off read from the data, not from the text of the source: active = GI50 up to about 1.1 µM and inactive = higher.
Outcome codes: t for active, f for inactive

Molecule: c1cc(-c2ccsc2-c2ccsc2)cs1
Assigned category: f
--
Molecule: CC(=O)OCc1nnn2c1CCC2
Assigned category: f
--
Molecule: CN(C)c1ccc(/C=C(\NC(=O)c2ccccc2)c2nc3cncnc3[nH]2)cc1
Assigned category: f
--
Molecule: CCOc1ccc(NC(=O)C(=O)CC(=O)c2sc(NNC(C)=O)nc2C)cc1
Assigned category: f
--
Molecule: Cc1nc(O)nc(CC(O)(c2ccccc2)c2ccccc2)c1-c1ccccc1
Assigned category: f
--
Molecule: CC/C(=N/O)C(C)C(=O)CCC(=O)Nc1ccc(Cl)cc1 (stereo unspecified)
Assigned category: f
--
Molecule: Cn1c(=O)c2nc(CCCCC(=O)O)[nH]c2n(C)c1=O
Assigned category: f
--
Molecule: COc1ccc(C[C@H]2COC(=O)[C@@H]2Cc2ccccc2)cc1OC
Assigned category: f
--
Molecule: COc1ccc(/C=C2/C(=O)C(c3ccccc3)N(c3ccccc3)C2=O)cc1OC (stereo unspecified)
Assigned category: t
--
Molecule: O=[N+]([O-])c1ccc2sc(/C=N/c3ccc(O)cc3)cc2c1
Assigned category: f
--
Molecule: O=C(/C=C/c1cccs1)c1ccc(Cl)cc1
Assigned category: f
